Value source: paper PMC5540273

- Tested on: AURKA
- MEASUREMENT_SETUP: concentration: 1 μM, replicates: in singlicate; n = 1;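 note: KINOMEscan kinase panel screen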
Entries and their measured %Inh follow.
Output should be the measured figure followed by the unit it is expressed in.

In the examples that follow, each entry is paired with its recorded %Inh.
1. Nc1cccc(-c2ccc3c(N)n[nH]c3c2)n1    8%
2. CS(=O)(=O)CCNCc1nc(-c2ccc3ncnc(Nc4ccc5c(cnn5Cc5ccccc5)c4)c3c2)cs1.Cl.Cl    32%
3. Fc1ccc(-c2nn3cccc(F)c3c2-c2ccncc2)cc1    0%
4. O=C(Nc1n[nH]c2nc(-c3cccs3)c(Br)cc12)C1CC1    0%
5. COc1ccc(Nc2nccc(N3CCC(NC(=O)C(C)c4ccc(Cl)cc4)C3)n2)cc1 (centres unmarked)    0%

stdin: # query: %Inh of entry Cc1ccccc1-c1cc(-c2c[nH]nc2-c2ccccn2)ccn1
stdout: 0%

stdin: Again, but for O=C(Nc1n[nH]c2nc(-c3ccco3)c(Br)cc12)C1CCN(Cc2ccccc2)C1.O=C(O)[C@H](O)[C@@H](O)C(=O)O (centres unmarked)
stdout: 34%

stdin: Can you check COc1ccc(Nc2nccc(NCCNC(=O)Nc3cc(C)ccc3C)n2)cc1 next?
stdout: 0%

stdin: What about this molecule? COc1ccc2cc(-c3nc(-c4ccccc4C(C)C)[nH]c3-c3ccncc3)ccc2c1
stdout: 5%

stdin: How about this molecule: FC(F)(F)c1ccccc1-c1cc(-c2c[nH]nc2-c2ccccn2)ccn1
stdout: 44%

stdin: Same question for Cc1nccc(-c2c(-c3ccc(F)cc3)ncn2CCCN2CCOCC2)n1.Cl please.
stdout: 8%

###

- System: TRKC
- Construct: gene NTRK3
- MEASUREMENT_SETUP: concentration: 1 μM, replicates: in singlicate; n = 1
ASSAY_ENDPOINT: %Inh (%)
# unit: % | format: bare number

Guide cases for %Inh, answers given:
1. Nc1nccc(-c2c(-c3ccc(F)cc3)ncn2C2CCN(Cc3ccccc3)CC2)n1 [SB-219980]    0
2. CNc1nc(-c2ccc3c(N)n[nH]c3c2)cc(N2C[C@@H](C(=O)Nc3ccccc3)CC[C@H]2C)n1 [GSK2298859]    0
3. Nc1ncnc2occ(-c3ccc4c(c3)CCN4C(=O)Cc3cc(F)ccc3F)c12 [GSK2645446]    0

stdin: // lookup %Inh | system=TRKC | key= COc1ccc(Nc2nccc(N3CCC(NC(=O)c4cc5ccccc5s4)C3)n2)cc1 (stereo not drawn) [GSK1379738]
stdout: 0

###

- Test system: FLT3-autoinhibited
- MEASUREMENT_SETUP: concentration: 1 μM, replicates: in singlicate; n = 1
ASSAY_ENDPOINT: %Inh (%)
Your answer should be a plain number; it is taken to be in %.

# example entries with known answers
1. Cc1nccc(-c2c(-c3ccc(F)cc3)ncn2CCCN2CCOCC2)n1.Cl [SB-282975]    19
2. COc1cccc(NC(=O)Nc2ccc(C)c(-c3ccc(C(=O)Nc4ccncc4)cc3)c2)c1 [GSK1398474]    0
3. Cc1cnc(N)c(/C=C/c2cncc(C(=O)NCCc3ccc(Cl)cc3Cl)c2)c1.Cl [GSK190937]    0
4. CCCCc1nn2ncccc2c1-c1ccnc(NC2CC2)n1 [GW684374]    0
5. Cc1c(Cn2c(C)c(C)n3c(=O)cc(N4CCOCC4)nc23)cccc1C(F)(F)F [GSK2328680]    0
6. COC(=O)C(Cc1ccccc1)NC(=O)NC1CCN(c2ccnc(Nc3ccc(F)cc3)n2)C1 (stereo not shown) [GSK1379714]    5

stdin: Consider the compound shown here: CCn1c(-c2c(N)noc2C)nc2cnccc21 [SB-737856] What is its recorded %Inh?
stdout: 0

###

Listed here: items and their measured %Inh.
- Tested on: PRKCH
- MEASUREMENT_SETUP: concentration: 1 μM, replicates: in singlicate; n = 1
Give the quantity in %, number only.

Recorded results for 2 compounds are shown here.
1. Cc1ccccc1Cn1ccn2c(=O)cc(N3CCOCC3)nc12 [GSK2269905]    20
2. CCn1c(-c2ccccc2)nc2cnccc21 [SB-733416]    3

stdin: What value of measured %Inh is listed for COc1ccc(Nc2nccc(-c3ccc(NC(=O)c4cc5cc(F)ccc5[nH]4)cc3)n2)cc1 [GSK1229496] ?
stdout: 20

###

- Test system: PIM3
- MEASUREMENT_SETUP: concentration: 1 μM, replicates: in singlicate; n = 1
ASSAY_ENDPOINT: %Inh
Dear colleague, please send the value followed by its unit.

See these solved cases before continuing.
1. O=c1cc(N2CCOCC2)nc2n(Cc3ccccc3F)ccn12 [GSK2297428]    0%
2. CN1c2ccc(-c3ccc(C(N)=O)cc3)cc2-c2[nH]ncc2S1(=O)=O    13%
3. CS(=O)(=O)Cc1ccc(Nc2nccc(-c3c(-c4cccc(NC(=O)C5CCCCC5)c4)nn4ncccc34)n2)cc1 [GSK350559]    17%

// moving on: another record for %Inh
stdin: Name the reported %Inh value associated with the compound COC(=O)c1cccc(NC(=O)NC2CCN(c3ccnc(Nc4ccc(OC)cc4)n3)C2)c1 (stereo not shown) [GSK1379746]
stdout: 0%

###

Collected %Inh values appear next to each entry.
- System: MST3
- Construct: gene STK24
- MEASUREMENT_SETUP: concentration: 1 μM, replicates: in singlicate; n = 1
Report the value in % with no unit label.

Example cases with answers are listed next.
1) CNCc1ccc2nc(NC(=O)c3ccc(C(C)(C)C)cc3)cn2c1    7
2) O=c1cc(N2CCOCC2)nc2n(Cc3cccc(Cl)c3Cl)c3ccccc3n12    6
3) O=C(Nc1n[nH]c2nc(-c3ccco3)c(Br)cc12)C1CCN(Cc2ccccc2)C1.O=C(O)[C@H](O)[C@@H](O)C(=O)O (stereo not shown)    13

// next entry
stdin: What value of %Inh on MST3 does COc1cccc(C2=C(Nc3cc(Cl)c(O)c(Cl)c3)C(=O)NC2=O)c1 have?
stdout: 0

###

- Tested on: CDK9
- MEASUREMENT_SETUP: concentration: 1 μM, replicates: in singlicate; n = 1
ASSAY_ENDPOINT: %Inh (%)
Give a bare numeral; the unit % is implied.

Sample answers from the record:
1) CC(C)c1ccc(O)cc1Nc1ccnc2ccc(C(F)(F)F)cc12    0
2) Cl.Cl.Cl.N#Cc1ccc(CCNc2nccc(-c3cccc(CN4CCNCC4)c3)n2)cc1    22
3) Nc1nccc(-c2c(-c3ccc(F)cc3)ncn2C2CCN(Cc3ccccc3)CC2)n1    0
4) CC(=O)c1cccc(NC(=O)NC2CCN(c3ccnc(Nc4ccc(F)cc4)n3)C2)c1 (centres unmarked)    17
5) CC(=O)c1c(C)c2cnc(Nc3ccn(C)n3)nc2n(C2CCCC2)c1=O    18

stdin: Reported %Inh for c1ccc(-c2ccnc3[nH]ccc23)cc1 : what is it?
stdout: 0

stdin: Another compound: CNCc1ccc2nc(NC(=O)c3ccc(C(C)(C)C)cc3)cn2c1
stdout: 3

stdin: Same again, this time with Cc1ccc(-c2nc(Nc3ccncc3)c3ccccc3n2)s1
stdout: 5

stdin: Would you mind doing CNc1nc(-c2ccc3c(N)n[nH]c3c2)cc(N2C[C@@H](C(=O)NC3CCCCC3)OC[C@H]2C)n1 as well?
stdout: 0

stdin: What about Cc1ccc(NC(=O)Nc2ccccc2F)cc1-c1ccc(C(=O)Nc2ccncc2)cc1 ?
stdout: 3

stdin: // next record NS(=O)(=O)c1cccc(N/C=C2\C(=O)Nc3ccc(S(=O)(=O)Cc4c(Cl)cccc4Cl)cc32)c1
stdout: 0

stdin: Try this compound next: COc1cccc(C2=C(Nc3cc(Cl)c(O)c(Cl)c3)C(=O)NC2=O)c1
stdout: 0

stdin: Try the compound COC(=O)c1cccc(NC(=O)NC2CCN(c3ccnc(Nc4ccc(F)cc4)n3)C2)c1 (centres unmarked)
stdout: 0

stdin: Queued: COc1ccc2cc(-c3nc(-c4ccccc4C(C)C)[nH]c3-c3ccncc3)ccc2c1
stdout: 0

###

- Test system: YSK4
- Construct: gene MAP3K19
- MEASUREMENT_SETUP: concentration: 1 μM, replicates: in singlicate; n = 1
Listed compounds paired with reported %Inh
Note: unit % is implicit; provide only the numeric part.

stdin: Any idea what its %Inh is? The compound is COc1ccc2cc(-c3nc(-c4ccccc4C(C)C)[nH]c3-c3ccncc3)ccc2c1 [SB-660566]
stdout: 45

stdin: Further, for O=c1cc(N2CCOCC2)nc2n(Cc3ccccc3F)ccn12 [GSK2297428] ?
stdout: 33

stdin: Can you check O=C1NC(=O)C(c2ccc(Cl)cc2)=C1Nc1cccc(Cl)c1 [SB-317651] next?
stdout: 0

stdin: Query O=C(Nc1n[nH]c2nc(-c3cccs3)c(Br)cc12)C1CCCC1 [SB-743341] next
stdout: 0
